systemName: T1, SEQ ID NO: 346 glycopeptide with TF-antigen at Thr9
T1 construct: also called T9^TF
T1 peptide: HGVTSAPDT(Galβ1‑3GalNAc)RPAPGSTAPP
testSummary: ELISA on coated glycopeptide, antibody 0.01 mg/ml, mean of 3
Where no end group is shown, it is not given here. Galβ1‑3GalNAc = TF-antigen
quantity: ELISA absorbance at 450 nm (absorbance)

{"binder": "M3 (antibody, human IgG1, lambda, V domains shown, Human IgG) VH: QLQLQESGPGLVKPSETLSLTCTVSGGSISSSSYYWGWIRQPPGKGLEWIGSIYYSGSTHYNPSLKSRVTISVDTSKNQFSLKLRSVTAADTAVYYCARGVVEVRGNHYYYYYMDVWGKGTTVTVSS VL: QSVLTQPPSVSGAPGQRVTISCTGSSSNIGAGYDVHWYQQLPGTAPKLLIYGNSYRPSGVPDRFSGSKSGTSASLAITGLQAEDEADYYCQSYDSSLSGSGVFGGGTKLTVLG", "reported": 0.1}
